System: MGC-803
Assay: Antiproliferative activity against human MGC-803 cells incubated for 48 hrs by CCK8 assay
Format: functional, cell-based
Settings: MGC-803, 48 h
Observed Property: IC50
# do not omit the unit; it follows the number

Entry under test: O=C(Cc1ccccc1)N1CCc2cc(Br)ccc21 . Its IC50 was 32.8 µM
